B1: Azoarcus group I ribozyme (parent)
chain: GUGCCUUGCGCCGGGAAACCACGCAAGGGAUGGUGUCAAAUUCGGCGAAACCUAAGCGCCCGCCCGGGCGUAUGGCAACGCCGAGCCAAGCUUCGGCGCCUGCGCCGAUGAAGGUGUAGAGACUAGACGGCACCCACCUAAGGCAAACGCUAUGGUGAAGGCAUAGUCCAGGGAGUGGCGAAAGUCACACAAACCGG

variants of: B1; experiment: reverse-splicing fitness (ratio to wild type); higher = more active; in vitro selection; Mg2+ level not given
// f strictly below 0.009 in reverse-splicing fitness; t otherwise

Sample answers from the record:
Reported reverse-splicing fitness at or above 0.009? C82U A111C C169A
t

Reported reverse-splicing fitness at or above 0.009? C82A A111G A120G A145C U176A
t

Reported reverse-splicing fitness at or above 0.009? C82A A111C A120C C169U U176G
f

Reported reverse-splicing fitness at or above 0.009? C82G C150G U176G
f

Reported reverse-splicing fitness at or above 0.009? C82G A111U A120G A145U C169G U176G
f

Reported reverse-splicing fitness at or above 0.009? C82G A111C A120G A145G C150U U176A
t

Next:
Reported reverse-splicing fitness at or above 0.009? C82G A111U A120U A145G C150G U176A
f

Reported reverse-splicing fitness at or above 0.009? C82A A111C A120C A145U C150G C169U
t

Reported reverse-splicing fitness at or above 0.009? C82U A111C A120G A145C C169G U176A
t

Reported reverse-splicing fitness at or above 0.009? C82A A120G A145C U176A
t
